- System: pressor response to angiotensin I
- PROCEDURE_SUMMARY: Inhibition of pressor response to angiotensin I in rats after oral administration
- Type: in vivo, rat (male Wistar)
- CONDITION_NOTES: 85 min, angiotensin I 300 ng/kg i.v., dose: 3, 45, 49 1.8 mg/kg, 4, 46 1.3, 50 1.4, 76 2.0, 77 1.5
- Experimental: Male Wistar strain rats weighing about 200-300 g were used. Under ether anesthesia, polyethylene cannulae are inserted into carotid arthery and jugular vein. […] After the complete recovery from anesthesia, angiotensin I is infused intravenously in a dose of 300 ng/kg by the apparatus for continuous infusion, and the pressor response is recorded by polygraph (Nihon Koden, RM-150). […]
Hi! Could you tag entries with Inhibition (%) of pressor response to angiotensin I, 85 min below 20% as 1 (yes), and those at or above as 0 (no)? Much appreciated.

>>> df
                                   compound  label_value
0  O=C(O)[C@@H]1CSC(c2ccccc2O)N1C(=O)CCS (stereo partly shown) [Compound 46]       0 (no)
1  C[C@H](CSC(=O)c1ccccc1)C(=O)N1C(C2CCCCC2)SC[C@H]1C(=O)O (stereo partly shown) [Compound 3]      1 (yes)
2  C[C@H](CS)C(=O)N1C(C2CCCCC2)SC[C@H]1C(=O)O (stereo partly shown) [Compound 4]      1 (yes)
3  COc1ccc(C2SC[C@@H](C(=O)O)N2C(=O)[C@H](C)CSC(=O)c2ccccc2)c(O)c1 (stereo partly shown) [Compound 76]       0 (no)
4  COc1ccc(C2SC[C@@H](C(=O)O)N2C(=O)[C@H](C)CS)c(O)c1 (stereo partly shown) [Compound 77]       0 (no)
5  O=C(SCCC(=O)N1C(c2ccccc2O)SC[C@H]1C(=O)O)c1ccccc1 (stereo partly shown) [Compound 45]       0 (no)
6  C[C@H](CS)C(=O)N1C(c2ccccc2O)SC[C@H]1C(=O)O (stereo partly shown) [Compound 50]       0 (no)

###

- Test system: pressor response to angiotensin I
- PROCEDURE_SUMMARY: Inhibition of pressor response to angiotensin I in rats after oral administration
- Assay type: in vivo, rat (male Wistar)
- CONDITION_NOTES: 25 min, angiotensin I 300 ng/kg i.v., dose: 3, 45, 49 1.8 mg/kg, 4, 46 1.3, 50 1.4, 76 2.0, 77 1.5
// returns rule not met unless Inhibition (%) of pressor response to angiotensin I, 25 min is strictly below 40%, in which case rule met

>>> df
                                   molecule   label_value
0  C[C@H](CS)C(=O)N1C(c2ccccc2O)SC[C@H]1C(=O)O (stereo partly shown) [Compound 50]      rule met
1  C[C@H](CS)C(=O)N1C(C2CCCCC2)SC[C@H]1C(=O)O (stereo partly shown) [Compound 4]      rule met
2  O=C(O)[C@@H]1CSC(c2ccccc2O)N1C(=O)CCS (stereo partly shown) [Compound 46]  rule not met
3  COc1ccc(C2SC[C@@H](C(=O)O)N2C(=O)[C@H](C)CSC(=O)c2ccccc2)c(O)c1 (stereo partly shown) [Compound 76]  rule not met
4  C[C@H](CSC(=O)c1ccccc1)C(=O)N1C(C2CCCCC2)SC[C@H]1C(=O)O (stereo partly shown) [Compound 3]      rule met
5  O=C(SCCC(=O)N1C(c2ccccc2O)SC[C@H]1C(=O)O)c1ccccc1 (stereo partly shown) [Compound 45]      rule met
6  COc1ccc(C2SC[C@@H](C(=O)O)N2C(=O)[C@H](C)CS)c(O)c1 (stereo partly shown) [Compound 77]  rule not met

Origin of the recorded values: patent US4356183A
